experimental.protocol: AUC (0 to 24 hrs) in BALB/c mouse brain at 250 mg/kg, IG measured at 0.5 to 24 hrs by HPLC-MS analysis
Format: ADME, organism-based
Parameters: dose 250 mg/kg, time 0.5-24 hrs, route ig
condition.label: po

smiles.record | AUC(0-t), µg·h/mL
N#C/C=C/c1ccc2c(S(=O)(=O)n3nc(Nc4ccc(C#N)c(Cl)c4)nc3N)cccc2c1 | 142

---

experimental.protocol: AUC (0 to 24 hrs) in BALB/c mouse plasma at 250 mg/kg, IG measured at 0.5 to 24 hrs by HPLC-MS analysis
Assay type: ADME, organism-based
Set-up: time upper 24 hrs, time lower 0.5 hrs, dose 250 mg/kg, route ig
condition.label: po
measurement.kind: AUC(0-t) (µg·h/mL)

smiles.record | recorded.number
N#C/C=C/c1ccc2c(S(=O)(=O)n3nc(Nc4ccc(C#N)c(Cl)c4)nc3N)cccc2c1 | 397

---

Tested on: Human immunodeficiency virus 1
experimental.protocol: Antiviral activity against HIV1 harboring A17 mutant infected in human TZM-bl cells
Format: functional, organism-based
condition.label: Human immunodeficiency virus 1, TZM-bl
Listing of recorded IC50 by entry.

compound | measurement.target | IC50 [nM]
N#Cc1ccc(Nc2nc(N)n(S(=O)(=O)c3cccc4cc(C#N)ccc34)n2)cc1 | Human immunodeficiency virus 1 | 55
N#Cc1ccc2c(S(=O)(=O)n3nc(Nc4ccc(C#N)c(C#N)c4)nc3N)cccc2c1 | Human immunodeficiency virus 1 | 1.3
Cc1cc(/C=C/C#N)cc(C)c1Nc1ccnc(Nc2ccc(C#N)cc2)n1 [RILPIVIRINE] | Human immunodeficiency virus 1 | 0.8
N#C/C=C/c1ccc2c(S(=O)(=O)n3nc(Nc4ccc(C#N)c(Cl)c4)nc3N)cccc2c1 | Human immunodeficiency virus 1 | 1.3

---

experimental.protocol: AUC (0 to infinity) in BALB/c mouse brain at 250 mg/kg, IG measured at 0.5 to 24 hrs by HPLC-MS analysis
Type: ADME, organism-based
Design: time upper 24 hrs, time lower 0.5 hrs, dose 250 mg/kg, route ig
condition.label: po

smiles.record | u | AUC(0-inf)
N#C/C=C/c1ccc2c(S(=O)(=O)n3nc(Nc4ccc(C#N)c(Cl)c4)nc3N)cccc2c1 | µg·h/mL | 184

---

experimental.protocol: Neurotoxicity in mouse primary neurons assessed as loss of MAP-2 intensity incubated for 48 hrs by imaging analysis
Assay type: toxicity, cell-based
condition.label: neuron
Readings of TC10 for the listed molecules

smiles.record | u | TC10
N#Cc1ccc2c(S(=O)(=O)n3nc(Nc4ccc(C#N)c(C#N)c4)nc3N)cccc2c1 | nM | 4500
Cc1cc(/C=C/C#N)cc(C)c1Nc1ccnc(Nc2ccc(C#N)cc2)n1 | nM | 930
N#Cc1ccc(Nc2nc(N)n(S(=O)(=O)c3cccc4cc(C#N)ccc34)n2)cc1 | nM | 170
Nc1nc(Nc2ccc(Cl)cc2)nn1S(=O)(=O)c1ccc2ccccc2c1 | nM | 6100

---

experimental.protocol: Safety index, ratio of TC10 for neurotoxicity in mouse primary neurons assessed as loss of MAP-2 intensity to EC50 for antiviral activity against wild type HIV1 IIIB infected in human TZM-bl cells
Assay type: toxicity, cell-based
condition.label: mouse primary neurons, TZM-bl cells
Here the recorded selectivity ratio is given for each entry.

smiles.record | selectivity ratio
Nc1nc(Nc2ccc(Cl)cc2)nn1S(=O)(=O)c1ccc2ccccc2c1 | 6.5
N#Cc1ccc2c(S(=O)(=O)n3nc(Nc4ccc(C#N)c(C#N)c4)nc3N)cccc2c1 | 140
N#Cc1ccc(Nc2nc(N)n(S(=O)(=O)c3cccc4cc(C#N)ccc34)n2)cc1 | 5.4
